B1: TPR 5TU (parent)
chain: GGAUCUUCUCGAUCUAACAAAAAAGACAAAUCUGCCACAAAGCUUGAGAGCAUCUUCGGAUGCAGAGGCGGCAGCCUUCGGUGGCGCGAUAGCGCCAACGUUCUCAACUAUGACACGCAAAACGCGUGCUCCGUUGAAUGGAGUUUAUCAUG

variants of: B1; assay: polymerase ribozyme fitness, log enrichment relative to wild type (log ratio); higher = more active; in vitro selection for triplet polymerase activity
Variants at the floor of the assay were thinned out.
readout: polymerase ribozyme fitness (log ratio)
API doc: respond with a numeric literal and nothing else, no unit.

Study these solved cases before continuing.
{"columns": ["mutation-string", "polymerase ribozyme fitness (log ratio)"],
 "data": [
  ["C75U C85U A106C A122C U135A U145A", -3.69],
  ["U33C C85U A119G", -3.71]
]}

Query: I have this variant here, G70A C85U , and I need its recorded polymerase ribozyme fitness (log ratio).
Result: -3.46

Query: I have this variant here, G86A U101G , and I need its recorded polymerase ribozyme fitness (log ratio).
Result: -0.828

Query: I have this variant here, A40U A47C C51U U82C C118G , and I need its recorded polymerase ribozyme fitness (log ratio).
Result: -2.44
